This collection of values is drawn from patent US9187525B2.

Assay Target: T1, natriuretic peptide receptor-B (human)
T1 chain: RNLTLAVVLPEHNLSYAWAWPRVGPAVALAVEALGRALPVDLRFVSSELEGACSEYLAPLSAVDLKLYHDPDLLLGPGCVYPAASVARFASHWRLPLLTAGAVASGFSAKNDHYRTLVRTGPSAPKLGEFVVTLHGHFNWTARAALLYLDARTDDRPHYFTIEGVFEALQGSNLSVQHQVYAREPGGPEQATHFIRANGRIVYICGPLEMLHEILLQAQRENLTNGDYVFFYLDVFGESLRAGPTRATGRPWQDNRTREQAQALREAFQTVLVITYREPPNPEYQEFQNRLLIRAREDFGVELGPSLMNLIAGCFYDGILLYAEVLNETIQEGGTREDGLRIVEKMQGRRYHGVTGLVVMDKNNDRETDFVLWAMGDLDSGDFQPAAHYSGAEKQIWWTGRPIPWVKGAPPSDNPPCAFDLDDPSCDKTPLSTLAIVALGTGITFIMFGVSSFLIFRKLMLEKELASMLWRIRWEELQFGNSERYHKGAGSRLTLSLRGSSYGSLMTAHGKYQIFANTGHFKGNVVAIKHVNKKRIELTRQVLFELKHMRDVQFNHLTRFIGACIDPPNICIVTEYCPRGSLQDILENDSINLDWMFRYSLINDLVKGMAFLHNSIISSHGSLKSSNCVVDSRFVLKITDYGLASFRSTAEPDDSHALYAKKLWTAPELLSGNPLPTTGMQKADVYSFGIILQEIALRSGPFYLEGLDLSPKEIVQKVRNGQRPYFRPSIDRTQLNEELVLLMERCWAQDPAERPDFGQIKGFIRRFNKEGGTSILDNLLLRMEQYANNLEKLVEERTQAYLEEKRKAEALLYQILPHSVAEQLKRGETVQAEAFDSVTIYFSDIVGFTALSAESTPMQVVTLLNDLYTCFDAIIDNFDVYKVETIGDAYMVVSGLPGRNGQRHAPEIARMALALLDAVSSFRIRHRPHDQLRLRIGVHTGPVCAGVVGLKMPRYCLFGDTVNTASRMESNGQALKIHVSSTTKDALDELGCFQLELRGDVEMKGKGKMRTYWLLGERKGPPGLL
Procedure Summary: cell-based or functional assay
Square brackets hold non-standard residues; d marks the D form. Ends that are not written are not given here. * marks the point of attachment. Hyp = O=C(O)[C@@H]1C[C@@H](O)CN1; NMeL = CN[C@@H](CC(C)C)C(=O)O; AR‑201‑49 = not defined here; Decanoyl = CCCCCCCCCC(=O)*
Assignment: determine reported EC50 group, cGMP in GTM-3 cells for the given binders.

{"Binder": "[AR‑201‑49]F[dR]L[Hyp][NMeL]DRI-NH2 (reading uncertain; also: printed as (AR-201-49)-Phe-arg-Leu-Hyp-Nml-Asp-Arg-Ile-NH2) [JAL-1292]", "EC50 group, cGMP in GTM-3 cells": "≤ 5 µM"}

Here is the next item to consider.
What value of measured EC50 group, cGMP in GTM-3 cells is listed for Decanoyl-FRL[Hyp][NMeL]DRI-NH2 (not fully specified (some residues); printed as 5587-Phe-arg-Leu-Hyp-Nml-Asp-Arg-Ile-NH2) [JAL-1261] ?
≤ 15 µM
